experimentSummary: ATG_AP_2_CIS: Attagene CIS-FACTORIAL HepG2 Assay for human Activator Protein 2 (AP-2) (AID 2282932)
settings: HepG2 AP-2 cis-reporter, Attagene transcription factor profiling; actives raise or lower the signal
Active and inactive are the calls of the source. How the source made its calls: active means hit-call score of the fitted dose curve at least 0.9, where 1 is the maximum; inactive means score below 0.9.
readoutType: outcome

- recordSmiles: "O=C(O)c1ccc2c(c1)nc(C(=O)NC1CCN(C3CC3)CC1)n2Cc1cc(-c2ccc(Cl)s2)on1"
  result: "inactive"
- recordSmiles: "C=CCc1cc(S(=O)(=O)c2ccc(O)c(CC=C)c2)ccc1O"
  result: "inactive"
- recordSmiles: "c1ccc2ncccc2c1"
  result: "inactive"
- recordSmiles: "NC(=O)N1c2ccccc2C=Cc2ccccc21"
  result: "inactive"
- recordSmiles: "C[C@]12C=CC(=O)C=C1CC[C@H]1[C@@H]3C[C@@H](O)[C@](O)(C(=O)CO)[C@@]3(C)C[C@H](O)[C@@]12F"
  result: "inactive"
- recordSmiles: "OCc1c[nH]c2ccccc12"
  result: "inactive"
- recordSmiles: "CCOC(N)=O"
  result: "inactive"
- recordSmiles: "NC(=O)NN=Cc1ccc([N+](=O)[O-])o1"
  result: "inactive"
- recordSmiles: "OC[C@H]1O[C@@](CO)(O[C@H]2O[C@H](CO)[C@@H](O)[C@H](O)[C@H]2O)[C@@H](O)[C@@H]1O"
  result: "inactive"
- recordSmiles: "COc1cc(C(C)C)c2c(c1)S(=O)(=O)N(COc1cc(=O)n3cccc(OCCN4CCCCC4)c3n1)C2=O"
  result: "inactive"
- recordSmiles: "O=C(O)c1cccc(C(=O)O)c1"
  result: "inactive"
- recordSmiles: "O=C1CN(N=Cc2ccc([N+](=O)[O-])o2)C(=O)N1"
  result: "inactive"
- recordSmiles: "O=S1(=O)CCCO1"
  result: "inactive"
- recordSmiles: "CC(=O)c1ccccc1"
  result: "inactive"
- recordSmiles: "CCCCCCCC/C=C\\CCCCCCCC(=O)OC[C@@H](O)[C@H]1OC[C@H](O)[C@H]1O"
  result: "inactive"
- recordSmiles: "FC(F)=C(F)C(F)(F)C(F)(F)C(F)(F)C(F)(F)C(F)(F)C(F)(F)F"
  result: "inactive"
- recordSmiles: "O=C(N[C@H](CO)[C@H](O)c1ccc([N+](=O)[O-])cc1)C(Cl)Cl"
  result: "inactive"
- recordSmiles: "Cc1nc(-c2ccccn2)ncc1C(=O)Nn1cc(C)c2cc(F)ccc21"
  result: "inactive"
- recordSmiles: "COS(C)(=O)=O"
  result: "inactive"
- recordSmiles: "OCc1ccccc1"
  result: "inactive"
- recordSmiles: "NCC(F)(F)C(F)(F)C(F)(F)C(F)(F)F"
  result: "inactive"

----------
experimentSummary: CEETOX_H295R_CORTIC: CeeTox H295R High-throughput Steroidogenesis Assay for Corticosterone (CORTIC) (AID 2283437);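 further: corticosterone secreted into medium quantified by mass spectrometry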
settings: actives raise or lower the signal
Calls of active or inactive are those of the source. How the source made its calls: active means hit-call score of the fitted dose curve at least 0.9, where 1 is the maximum; inactive means score below 0.9.
Labels: active, inactive

- compound: "CCCCC(CC)C(=O)OCCOCCOCCOC(=O)C(CC)CCCC (stereo not drawn)"
  assignedLabel: "inactive"
- compound: "C[C@@H](Oc1ccc(CNC(=O)c2cccnc2Oc2ccc3c(c2)OCO3)c(F)c1)C(=O)O"
  assignedLabel: "inactive"
- compound: "c1ccc2c(c1)-c1cccc3c1c-2cc1ccccc13"
  assignedLabel: "inactive"
- compound: "CCn1nc(C)c2c1C(=O)NCC(c1ccc(O)cc1)=N2"
  assignedLabel: "inactive"
- compound: "CC[C@H](C)C(=O)O[C@H]1C[C@H](O)C=C2C=C[C@H](C)[C@H](CC[C@@H](O)C[C@@H](O)CC(=O)O)[C@H]21"
  assignedLabel: "active"
- compound: "CC(C)c1nnc2ccc(-c3ocnc3-c3cc(F)ccc3F)cn12"
  assignedLabel: "inactive"
- compound: "Nc1ccn([C@@H]2O[C@H](CO)[C@@H](O)[C@@H]2O)c(=O)n1"
  assignedLabel: "inactive"
- compound: "CCN(CC)C(=S)SSC(=S)N(CC)CC"
  assignedLabel: "inactive"

Origin of measurements: PubChem BioAssay (EPA / NIEHS)
